Below, each entry is listed with its recorded koff.
molecular target: T1, recombinant extracellular domain of CD47 (UniProt Q08722 19-139, limits assumed); assay: SPR; antibody captured on anti-human Fc, CD47-ECD flowed 0-100 nM; 1:1 Langmuir
T1 construct: extracellular domain; Analyte flowed over the captured antibodies in SPR; also called CD47-ECD
T1 sequence (Q08722 19-139 limits assumed): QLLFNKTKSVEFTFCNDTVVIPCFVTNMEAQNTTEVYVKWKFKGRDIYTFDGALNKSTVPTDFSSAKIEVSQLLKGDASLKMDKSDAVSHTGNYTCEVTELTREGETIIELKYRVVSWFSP
Entry format: amount then unit.

In plain terms, Ab480/Ab1121 (antibody, V domains shown, FR and CDR L2 variant; Label printed HC first; r442 used; also called HC Ab480 / LC Ab1121) VH: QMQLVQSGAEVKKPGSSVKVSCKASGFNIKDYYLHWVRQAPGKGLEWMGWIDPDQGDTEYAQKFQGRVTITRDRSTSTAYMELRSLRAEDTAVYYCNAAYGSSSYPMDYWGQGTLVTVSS VL: NIQMTQSPSSLSASVGDRVTITCRASQDIHRYLSWFQQKPGKVPKHLIYRYIRFVDGVPSRFSGSGSGTEFTLTISSLQPEDFATYYCLQYDEFPYTFGGGTKVEIK has a documented koff of 0.00303 s⁻¹

More entries:
In plain terms, Ab480/Ab1127 (antibody, V domains shown, FR and CDR L2 variant; Label printed HC first; r460 used; also called HC Ab480 / LC Ab1127) VH: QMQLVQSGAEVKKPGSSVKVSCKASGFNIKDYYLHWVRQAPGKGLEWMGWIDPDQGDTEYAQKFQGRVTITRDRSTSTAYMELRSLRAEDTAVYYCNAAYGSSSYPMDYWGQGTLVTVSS VL: NIQMTQSPSSLSASVGDRVTITCRASQDIHRYLSWFQQKPGKVPKHLIYRESRFVDGVPSRFSGSGSGTEFTLTISSLQPEDFATYYCLQYDEFPYTFGGGTKVEIK has a documented koff of 0.00622 s⁻¹
